This collection of values is drawn from patent US11173151B2.

Target: human V1a receptor (Homo sapiens, UniProt P37288)
Construct: expressed in transfected cells; host or cells: CHO K1 (ATCC), also stably transfected with a modified aequorin
Sequence (P37288 whole entry): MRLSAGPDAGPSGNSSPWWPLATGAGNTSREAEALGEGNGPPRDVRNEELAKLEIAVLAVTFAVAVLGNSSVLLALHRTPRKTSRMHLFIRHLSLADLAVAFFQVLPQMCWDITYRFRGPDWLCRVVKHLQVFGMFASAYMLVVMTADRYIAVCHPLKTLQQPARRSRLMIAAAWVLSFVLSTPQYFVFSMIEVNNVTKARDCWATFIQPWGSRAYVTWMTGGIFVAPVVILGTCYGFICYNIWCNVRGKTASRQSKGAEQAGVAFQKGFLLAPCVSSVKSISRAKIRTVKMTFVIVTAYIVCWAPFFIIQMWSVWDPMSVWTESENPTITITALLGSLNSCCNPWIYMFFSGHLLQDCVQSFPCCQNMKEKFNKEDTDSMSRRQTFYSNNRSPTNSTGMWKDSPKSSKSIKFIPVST
Experiment: Cellular in vitro assay for determining vasopressin receptor activity, V1a receptor cell line (CHO, aequorin luminescence)
Format: cell-based
Details: selectivity ratio IC50 hV2 / IC50 hV1a
Checkbox rule: ratio IC50 hV2/hV1a lower than 60 = 1.0; ratio IC50 hV2/hV1a not lower than 60 = 0.0.

                                   compound  answer_label
0  O=C(NC1CC1)c1cccc(C(F)(F)F)c1-n1cnc(Cn2nc(-c3ccc(Cl)cc3)n(C[C@H](O)C(F)(F)F)c2=O)n1 [Example 415]           1.0
1  Cc1[nH]ncc1C(=O)Nc1ncccc1-n1cnc(Cn2nc(-c3ccc(Cl)cc3)n(C[C@H](O)C(F)(F)F)c2=O)n1 [Example 130]           1.0
2  Cc1ncccc1NC(=O)c1ccccc1-n1cnc(Cn2nc(-c3ccc(Cl)cc3)n(C[C@H](O)C(F)(F)F)c2=O)n1 [Example 221]           0.0
3  O=C(Nc1nccs1)c1ccccc1-n1cnc(Cn2nc(-c3ccc(Cl)cc3)n(C[C@H](O)C(F)(F)F)c2=O)n1 [Example 223]           1.0
4  CC1CN(C(=O)c2ncccc2-n2cnc(Cn3nc(-c4ccc(Cl)cc4)n(C[C@@H](O)C(F)(F)F)c3=O)n2)CCO1 (stereo partly shown) [Example 466]           0.0

Prompt: Here's an entry: O=C(Nc1cccnc1-n1cnc(Cn2nc(-c3ccc(Cl)cc3)n(C[C@H](O)C(F)(F)F)c2=O)n1)C1CC1F (single isomer, unassigned) [Example 56] . Is its ratio IC50 hV2/hV1a below 60?
Response: 0.0

###

Molecular target: human V1a receptor (Homo sapiens, UniProt P37288)
Construct: expressed in transfected cells; host or cells: CHO K1 (ATCC), also stably transfected with a modified aequorin
Assay: Cellular in vitro assay for determining vasopressin receptor activity, V1a receptor cell line (CHO, aequorin luminescence)
Format: cell-based
Conditions: CHO cell line transfected with human V1a receptor; [Arg]-vasopressin at EC50 concentration; read-out: IC50 hV1a
Metric name: IC50 (nM)
Express the result in nM but write the number alone.

                                   molecule  metric_name  measured_number
0  CC1CCN(C(=O)c2ccccc2-n2cnc(Cn3nc(-c4ccc(Cl)cc4)n(C[C@H](O)C(F)(F)F)c3=O)n2)C(C)C1 (stereo partly drawn)         IC50             3.85
1  O=C(c1ccccc1-n1cnc(Cn2nc(-c3ccc(Cl)cc3)n(C[C@H](O)C(F)(F)F)c2=O)n1)N1CCSCC1         IC50             1.85

Prompt: Quick one: IC50 for CC1CN(C(=O)c2ncccc2-n2cnc(Cn3nc(-c4ccc(Cl)cc4)n(C[C@H](O)C(F)(F)F)c3=O)n2)CCO1 (mixture of isomers) ?
Response: 100

###

Target: human V1a receptor (Homo sapiens)
Construct: expressed in transfected cells; host or cells: CHO K1 (ATCC), also stably transfected with a modified aequorin
Assay: Cellular in vitro assay for determining vasopressin receptor activity, V1a receptor cell line (CHO, aequorin luminescence)
Assay type: cell-based
Conditions: selectivity ratio IC50 hV2 / IC50 hV1a
Parameter: ratio IC50 hV2/hV1a. Scope: all listed entries.

In [3]: df
Out[3]:
                                   molecule                       assay_system  result
0  O=C(CC1CCC1)Nc1ncccc1-n1cnc(Cn2nc(-c3ccc(Cl)cc3)n(C[C@H](O)C(F)(F)F)c2=O)n1  human V1a receptor (Homo sapiens)    14.5
1  CC1(CNC(=O)c2ccccc2-n2cnc(Cn3nc(-c4ccc(Cl)cc4)n(C[C@H](O)C(F)(F)F)c3=O)n2)CCCO1 (mixture of isomers)  human V1a receptor (Homo sapiens)     0.9
2  O=C(Nc1cccc(O)c1)c1ccccc1-n1cnc(Cn2nc(-c3ccc(Cl)cc3)n(C[C@H](O)C(F)(F)F)c2=O)n1  human V1a receptor (Homo sapiens)    55.8
3  CCC(=O)Nc1ncccc1-n1cnc(Cn2nc(-c3ccc(Cl)cc3)n(C[C@H](O)C(F)(F)F)c2=O)n1  human V1a receptor (Homo sapiens)     3.1

// moving on: another record for ratio IC50 hV2/hV1a
Prompt: Reported ratio IC50 hV2/hV1a for human V1a receptor (Homo sapiens), given O=C(NC1CC1F)c1ccccc1-n1cnc(Cn2nc(-c3ccc(Cl)cc3)n(C[C@H](O)C(F)(F)F)c2=O)n1 (mixture of isomers) ?
Response: 329.8
